Hello, the source for this data is paper doi:10.1101/2025.03.25.645215v1, in case you need it.

STUDY_TARGET: B^0AT2/SLC6A15 (eGFP-hSLC6A15) (Homo sapiens, UniProt Q9H2J7)
Sequence (Q9H2J7 whole entry): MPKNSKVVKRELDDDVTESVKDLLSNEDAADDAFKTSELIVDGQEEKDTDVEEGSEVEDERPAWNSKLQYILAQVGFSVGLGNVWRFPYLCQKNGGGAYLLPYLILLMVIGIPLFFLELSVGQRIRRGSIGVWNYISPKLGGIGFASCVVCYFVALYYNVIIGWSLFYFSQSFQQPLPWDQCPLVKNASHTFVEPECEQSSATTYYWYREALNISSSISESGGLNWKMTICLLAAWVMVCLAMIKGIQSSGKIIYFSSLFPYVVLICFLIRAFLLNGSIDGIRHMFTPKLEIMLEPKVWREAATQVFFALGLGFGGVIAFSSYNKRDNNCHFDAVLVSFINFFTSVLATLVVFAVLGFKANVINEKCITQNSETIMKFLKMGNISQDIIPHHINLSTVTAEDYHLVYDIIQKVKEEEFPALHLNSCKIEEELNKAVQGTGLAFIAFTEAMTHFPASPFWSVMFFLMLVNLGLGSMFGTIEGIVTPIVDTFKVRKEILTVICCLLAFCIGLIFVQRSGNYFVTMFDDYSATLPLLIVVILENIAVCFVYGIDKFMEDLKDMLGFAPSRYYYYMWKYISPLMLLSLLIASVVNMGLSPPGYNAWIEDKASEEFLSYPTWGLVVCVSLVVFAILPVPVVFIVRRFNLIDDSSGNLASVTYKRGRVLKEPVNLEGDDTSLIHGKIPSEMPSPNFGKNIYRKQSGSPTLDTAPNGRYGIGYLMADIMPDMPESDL
PROTOCOL_NOTES: cell-based
Set-up: species or system HEK293 eGFP-hSLC6A15
MEASUREMENT_CONTEXT: read-out: B^0AT2 IC50; inhibitor
pIC50: −log10 of the molar value.

{"COMPOUND": "CC1(C)CC(=O)C2=C(C1)Nc1ccccc1N(C(=O)c1ccccc1)C2c1ccc(-c2ccc(Br)cc2)o1 (stereo not shown) [12i]", "pIC50": "< 4.10"}

----------
STUDY_TARGET: B^0AT2/SLC6A15 (eGFP-hSLC6A15) (Homo sapiens)
PROTOCOL_NOTES: cell-based
Parameters: species or system HEK293 eGFP-hSLC6A15
MEASUREMENT_CONTEXT: read-out: B^0AT2 IC50; inhibitor
pIC50: −log10 of the molar value.

{"COMPOUND": "COc1c(Cl)cc(Cl)cc1C1C2=C(CC(C)(C)CC2=O)Nc2ccccc2N1C(=O)c1ccccc1 (stereo not shown) [11ac]", "pIC50": "< 4.10"}
